target of assay: D(3) dopamine receptor (Homo sapiens)
test summary: qHTS of D3 Dopamine Receptor Antagonist: qHTS; further: on the % scale 0 is the no-effect control and ±100 the full control effect
recorded conditions: D3R cells, DiscoveRx beta-arrestin luminescence, antagonist mode; stronger effect = lower value
About 9,100 (2.5%) of roughly 360,000 compounds were called active. Roughly 4% stayed inconclusive and do not appear here. Many of the other results were omitted from the sample, so actives are more common in it than they were.
Each record here notes measured max response, negative = inhibition.
// note: answer is a bare numeric in %

Would you please look over these solved cases?
molecule	unit info	max response, negative = inhibition
Cc1nc2ccccn2c(=O)c1NC(=O)c1ccc(Br)o1	%	0
CC1(C(=O)NS(=O)(=O)c2cccs2)CCN1C(=O)Cc1ccc(-c2ccccc2)cc1 (centres undefined)	%	15.7
COC(=O)C[C@@H]1C=C[C@@H](NS(=O)(=O)c2cccc(OC)c2)[C@@H](CO)O1	%	3.79
CC(=O)Nc1ccc(C=Cc2ccc([N+](=O)[O-])cc2)cc1	%	-0.898
COc1ccc(OC)c(NC(=O)C2(C)CCN2C(=O)Cc2ccccc2)c1 (centres undefined)	%	19.2
CCOC(=O)N1C(=O)C[C@](Sc2ccc(C)cc2)(C(=O)OC)[C@H]1c1ccccc1	%	28.6
CCCOc1ccc(Cn2c(O)cc(=O)[nH]c2=O)cc1	%	-8.86
Cc1cccc(CN2CCN(C3CN(Cc4cn(Cc5cc(C)cc(C)c5)nn4)S(=O)(=O)C3)CC2)c1 (centres undefined)	%	0.506

# context switch: different molecule, same max response, negative = inhibition
Data request: State the recorded max response, negative = inhibition for this entry: O=C1[C@H]2[C@@H](c3ccc(F)cc3)N3C(=O)N(c4ccc(C(F)(F)F)cc4)C(=O)[C@@]3(Cc3ccccc3)[C@H]2C(=O)N1C1CCCCC1
Data returned: -13.4
